experiment: single oral dose pharmacokinetic study in healthy and NASH subjects; type: in vivo, human; settings: human, plasma, po, 50 mg, 50 mg single oral dose, NASH; read-out: AUC0-12, Geometric Mean
quantityKind: AUC(0-t) (ng·h/mL)
Quick note: give the figure in ng·h/mL, leave out the unit.

**Query** Using the record for C[C@H](CCCC(C)(C)O)[C@H]1CC[C@H]2[C@@H]3CC=C4C[C@@H](OS(=O)(=O)[O-])CC[C@]4(C)[C@H]3CC[C@]12C.[Na+] [25HC3S sodium, 25-hydroxycholesterol-3-sulfate sodium] , state its measured AUC(0-t).
**Result** 598

----------
test: single oral dose pharmacokinetic study in healthy and NASH subjects; assay type: in vivo, human; details: human, plasma, po, 50 mg, 50 mg single oral dose, NASH; read-out: T1/2, Mean (converted)
quantityKind: half-life
Write your answer as a measured quantity: the number, then the unit.

**Query** Using the record for C[C@H](CCCC(C)(C)O)[C@H]1CC[C@H]2[C@@H]3CC=C4C[C@@H](OS(=O)(=O)[O-])CC[C@]4(C)[C@H]3CC[C@]12C.[Na+] [25HC3S sodium, 25-hydroxycholesterol-3-sulfate sodium] , state its measured half-life.
**Result** 1.67 h
